All values here come from PubChem BioAssay AID652111.

Target: Serine/threonine-protein phosphatase 5 (Homo sapiens)
Experiment: PP5 inhibition of phosphorylase dephosphorylation, late-stage follow-up, selectivity assay for PP1 inhibitor project, biochemical, radiolabel, glycogen phosphorylase substrate, powder samples (AID 652111)
Details: recombinant PP5c, 32P/33P phosphorylase dephosphorylation, scintillation
Active and inactive are the calls of the source.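 How the source made its calls: active means IC50 below 50 µM against PP5; inactive means the rest.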
Labels: true (1) = active, false (0) = inactive

Compound	Category label
CN1CCN(C(c2ccccn2)c2cc(Cl)c3cccnc3c2O)CC1 (stereo not given)	false (0)
N#Cc1c(-c2ccc(Cl)cc2)cc(-c2cccs2)nc1SCC(=O)O	true (1)
COc1ccc(NC(=O)C2C3CCC(O3)C2C(=O)O)c(OC)c1 (stereo not given)	true (1)
CCOC(=O)c1sc2nc3c(SCC(=O)O)cc(C(=O)c4cc(F)ccc4O)cn3c(=O)c2c1C	true (1)
CCn1c2ccccc2c2cc(NC(=O)COC(=O)c3ccc(NC(=O)CC#N)cc3)ccc21	false (0)
